Molecular target: human TRPA1 ion channel (Homo sapiens, UniProt O75762)
Construct: host or cells: HEK293
Sequence (O75762 whole entry): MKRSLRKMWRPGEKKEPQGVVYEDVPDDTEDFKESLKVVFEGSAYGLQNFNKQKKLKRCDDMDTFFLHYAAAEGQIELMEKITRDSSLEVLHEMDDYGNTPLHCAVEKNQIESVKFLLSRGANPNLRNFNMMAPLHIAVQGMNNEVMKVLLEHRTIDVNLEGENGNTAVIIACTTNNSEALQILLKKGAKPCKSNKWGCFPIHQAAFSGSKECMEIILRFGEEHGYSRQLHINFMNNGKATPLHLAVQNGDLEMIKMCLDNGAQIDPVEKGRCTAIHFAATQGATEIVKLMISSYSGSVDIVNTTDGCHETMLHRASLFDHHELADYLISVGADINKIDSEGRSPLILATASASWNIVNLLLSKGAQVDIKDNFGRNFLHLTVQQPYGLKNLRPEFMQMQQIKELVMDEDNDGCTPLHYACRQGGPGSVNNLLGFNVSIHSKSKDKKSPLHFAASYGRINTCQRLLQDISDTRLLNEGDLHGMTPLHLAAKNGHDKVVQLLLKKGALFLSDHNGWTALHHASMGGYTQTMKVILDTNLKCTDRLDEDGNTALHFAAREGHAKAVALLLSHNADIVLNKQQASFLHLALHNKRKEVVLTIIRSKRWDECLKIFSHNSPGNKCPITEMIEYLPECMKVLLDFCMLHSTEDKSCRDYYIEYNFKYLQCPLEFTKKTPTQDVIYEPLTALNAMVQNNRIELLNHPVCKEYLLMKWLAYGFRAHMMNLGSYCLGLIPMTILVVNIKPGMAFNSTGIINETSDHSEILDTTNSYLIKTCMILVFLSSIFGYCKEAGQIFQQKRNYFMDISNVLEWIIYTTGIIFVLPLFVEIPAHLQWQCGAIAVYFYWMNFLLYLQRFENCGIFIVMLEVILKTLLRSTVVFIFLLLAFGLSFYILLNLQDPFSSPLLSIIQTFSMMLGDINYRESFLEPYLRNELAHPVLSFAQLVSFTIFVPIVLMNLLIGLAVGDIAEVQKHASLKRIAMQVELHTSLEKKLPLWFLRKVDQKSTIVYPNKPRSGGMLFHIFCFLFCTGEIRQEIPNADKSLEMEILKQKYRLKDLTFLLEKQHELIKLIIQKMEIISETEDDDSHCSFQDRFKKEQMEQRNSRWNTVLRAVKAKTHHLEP
Test: Assay A: TRPA1 assay (FLIPR calcium, AITC agonism)
Type: cell-based
Details: read-out: hTRPA1 IC50
pIC50: −log10 of the molar value.
Measure Name: pIC50

Would you please look over these solved cases?
Cn1c(=O)c(C(N)=O)cn(Cc2nc(C[C@H](O)c3ccc(Cl)cc3)no2)c1=O [Example 1]	7.42
Cc1ccc([C@@H](O)Cc2noc(Cn3cc(C(N)=O)c(=O)n(C)c3=O)n2)cc1 [Example 7]	7.08

1: Cn1c(=O)c(C(N)=O)cn(Cc2nc(C[C@H](O)c3ccc(I)cc3)no2)c1=O [Example 6]
2: Cn1c(=O)c(C(N)=O)cn(Cc2nc(C[C@H](O)c3cc4cc(F)ccc4o3)no2)c1=O [Example 5]
Exercise: compare 1 and 2 ; which one has the greater pIC50? State the label of the item chosen.
2
(2: 7.48, 1: 7.24)

----------
Assay: Assay B: Microsomal clearance
Type: in vitro ADME, human
Settings: pooled liver microsomes 1 mg/ml, test compound 1 μM, 37° C., NADPH
Documented human LM [% Qh] across a set of compounds

Would you please look over these solved cases?
Cn1c(=O)c(C(N)=O)cn(Cc2nc(C[C@H](O)c3cc4cc(Cl)ccc4o3)no2)c1=O	<23 % Qh
Cn1c(=O)c(C(N)=O)cn(Cc2nc(C[C@H](O)c3cc4ccc(F)cc4s3)no2)c1=O	43 % Qh
Cn1c(=O)c(C(N)=O)cn(Cc2nc(C[C@H](O)c3ccc(I)cc3)no2)c1=O	24 % Qh
Cn1c(=O)c(C(N)=O)cn(Cc2nc(C[C@H](O)c3cc4cc(F)ccc4o3)no2)c1=O	<23 % Qh
Cc1ccc([C@@H](O)Cc2noc(Cn3cc(C(N)=O)c(=O)n(C)c3=O)n2)cc1	<23 % Qh
Cn1c(=O)c(C(N)=O)cn(Cc2nc(C[C@H](O)c3ccc(Cl)cc3)no2)c1=O	<23 % Qh

Lab note: next compound to report on.
Find the recorded human LM [% Qh] belonging to Cn1c(=O)c(C(N)=O)cn(Cc2nc(C[C@H](O)c3cc4ccccc4s3)no2)c1=O and report it.
<23 % Qh

----------
Test: Assay C: Hepatocyte clearance
Format: in vitro ADME, human
Details: hepatocyte suspension, 5% species serum, test compound 1 μM, up to 6 h
Measure Name: human Hepatocytes [% Qh] (% Qh)

P: Cn1c(=O)c(C(N)=O)cn(Cc2nc(C[C@H](O)c3ccc(Cl)cc3)no2)c1=O [Example 1]
Q: Cc1ccc([C@@H](O)Cc2noc(Cn3cc(C(N)=O)c(=O)n(C)c3=O)n2)cc1 [Example 7]
R: Cn1c(=O)c(C(N)=O)cn(Cc2nc(C[C@H](O)c3cc4ccccc4s3)no2)c1=O [Example 2]
Please produce an ascending ranking of these compounds based on human Hepatocytes [% Qh]. Please list each label once, in the requested order.
Q, P, R
(Q: 8 % Qh, P: 15 % Qh, R: 24 % Qh)

----------
Molecular target: human TRPA1 ion channel (Homo sapiens, UniProt O75762)
Construct: host or cells: HEK293
Assay: Assay A: TRPA1 assay (FLIPR calcium, AITC agonism)
Format: cell-based
Details: read-out: hTRPA1 IC50
Protocol: A human HEK293 cell line over-expressing the human TRPA1 ion channel (Perkin Elmer, Product No. AX-004-PCL) is used as a test system for compound efficacy and potency. Compound activity is determined by measuring the effect of compounds on intracellular calcium concentration induced by AITC (Allylisothiocyanat) agonism in a FLIPRtetra system (Molecular Devices). The cells are obtained as frozen cells in cryo-vials and stored until use at −150° C. […]
pIC50: −log10 of the molar value.
Measure Name: pIC50

Cn1c(=O)c(C(N)=O)cn(Cc2nc(C[C@H](O)c3cc4ccc(F)cc4s3)no2)c1=O	8.10

a: Cn1c(=O)c(C(N)=O)cn(Cc2nc(C[C@H](O)c3cc4cc(Cl)ccc4o3)no2)c1=O
b: Cn1c(=O)c(C(N)=O)cn(Cc2nc(C[C@H](O)c3cc4ccccc4s3)no2)c1=O
Exercise: compare a and b ; which one has the greater pIC50? State the label of the item chosen.
b

----------
Experiment: Assay C: Hepatocyte clearance
Assay type: in vitro ADME, human
Settings: hepatocyte suspension, 5% species serum, test compound 1 μM, up to 6 h
Measure Name: human Hepatocytes [% Qh] (% Qh)

Cn1c(=O)c(C(N)=O)cn(Cc2nc(C[C@H](O)c3cc4ccc(F)cc4s3)no2)c1=O [Example 3]	17
Cn1c(=O)c(C(N)=O)cn(Cc2nc(C[C@H](O)c3cc4cc(Cl)ccc4o3)no2)c1=O [Example 4]	21
Cn1c(=O)c(C(N)=O)cn(Cc2nc(C[C@H](O)c3ccc(I)cc3)no2)c1=O [Example 6]	17
Cn1c(=O)c(C(N)=O)cn(Cc2nc(C[C@H](O)c3cc4cc(F)ccc4o3)no2)c1=O [Example 5]	15
